- TEST DESCRIPTION: chemical genetic growth profiling, strain panel (AID 1159580);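 note: tested at 20 µM; growth read once vehicle control cultures reached saturation at 30 °C; 1 = growth at the plate median or of vehicle wells; lower values mean less growth of the strain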
- CONDITION LABEL: S. cerevisiae deletion strains, growth OD, locus YML032C, strain rad52
The whole screen tested about 5,500 compounds, of which about 2,000 (36%) were called active. Roughly 18% stayed inconclusive and do not appear here. Cut-off read from the data, not from the text of the source: active = normalized growth mostly below about 0.91 (no sharp cut-off); inconclusive = no clear call, values can overlap the other calls; inactive = mostly above about 0.92. The list shows a part of the results.
Write down one outcome, taken from 1 (yes) (active), 0 (no) (inactive)

These recorded examples may help you get a feel for the data.
MOLECULE: NC(=O)c1ccc[n+]([C@@H]2O[C@H](COP(=O)([O-])OP(=O)(O)OC[C@H]3O[C@@H](n4cnc5c(N)ncnc54)[C@H](O)[C@@H]3O)[C@@H](O)[C@H]2O)c1
CLASS ASSIGNMENT: 0 (no)

MOLECULE: CC1CC2C3CCC4=CC(=O)C=C[C@]4(C)[C@@]3(F)[C@@H](O)C[C@]2(C)[C@@]1(O)C(=O)CO (some centres not stated)
CLASS ASSIGNMENT: 0 (no)

MOLECULE: C[N+](C)(C)CCOC(N)=O
CLASS ASSIGNMENT: 0 (no)

MOLECULE: CCOC(=O)C(Cc1ccc(O)cc1)NC(C)=O (configuration not stated)
CLASS ASSIGNMENT: 0 (no)

MOLECULE: CC1=C(/C=C/C(C)=C/C=C/C(C)=C/C=C/C=C(C)/C=C/C=C(C)/C=C/C2=C(C)C(=O)C(O)CC2(C)C)C(C)(C)CC(O)C1=O (configuration not stated)
CLASS ASSIGNMENT: 0 (no)

Query: So what was the verdict on C=C(C)C1CNC(C(=O)O)C1CC(=O)O (configuration not stated) in this test?
Response: 0 (no)

Query: Same question for COc1cc2c(cc1OC)C1C(=O)c3c(cc4c(c3O)C=CC(C)(C)O4)OC1CO2 (configuration not stated) please.
Response: 0 (no)

Query: And the next one, CN1CCC(=C2c3ccccc3Sc3ccccc32)CC1 ?
Response: 0 (no)

Query: Then what about the molecule CCN(CC)CCCC(C)Nc1ccnc2cc(Cl)ccc12 (configuration not stated) ?
Response: 0 (no)

Query: Same question, CN(C)C(=S)SSC(=S)N(C)C this time
Response: 1 (yes)

Query: // same read-out, input: C[C@@H]1[C@H]2[C@H](O[C@@H]3O[C@H](CO)[C@@H](O)[C@H](O)[C@H]3O)OC=C(C(=O)O)[C@H]2C[C@@H]1O
Response: 0 (no)

Query: Next molecule up: CC(C[N+](C)(C)C)OC(N)=O (configuration not stated)
Response: 0 (no)

Query: How about this molecule: COc1cc2c(cc1OC)[C@@H]1C(=O)c3ccc4c(c3O[C@@H]1CO2)C=CC(C)(C)O4
Response: 0 (no)

Query: Okay, and CC(=O)OCC[N+](C)(C)C ?
Response: 0 (no)

Query: And the next one, NCC1CCC(C(=O)O)CC1 (configuration not stated) ?
Response: 0 (no)

Query: Cool, now COc1cc2c(cc1OC)[C@@H]1C(=O)c3ccc(O)c(CC=C(C)C)c3O[C@@H]1CO2
Response: 0 (no)

Query: What do you get for COc1cc2c(cc1OC)[C@@H]1C(=O)c3ccc4oc(C(C)C)cc4c3O[C@@H]1CO2 ?
Response: 0 (no)
